- test.target: Delta-type opioid receptor (Homo sapiens, UniProt P41143)
- Sequence (P41143 whole entry): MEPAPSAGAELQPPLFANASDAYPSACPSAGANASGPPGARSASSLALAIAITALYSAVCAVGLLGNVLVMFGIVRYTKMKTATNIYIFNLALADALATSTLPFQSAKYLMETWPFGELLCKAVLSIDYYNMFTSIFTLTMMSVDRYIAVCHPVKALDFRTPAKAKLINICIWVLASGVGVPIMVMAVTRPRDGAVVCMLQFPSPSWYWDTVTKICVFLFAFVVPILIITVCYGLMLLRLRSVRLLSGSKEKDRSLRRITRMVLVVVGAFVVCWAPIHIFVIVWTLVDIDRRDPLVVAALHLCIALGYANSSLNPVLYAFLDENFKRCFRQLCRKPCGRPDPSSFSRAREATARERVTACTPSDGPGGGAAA
- test.protocol: Displacement of [3H]DADLE from human delta opioid receptor expressed in CHO cells by scintillation counting analysis
- Assay type: cell-based
Reported Ki maps to class as: band A = under 1 nM, band B = from 1 nM up to 2 nM, band C = 2 nM and over

Past entries and their recorded results:
Asked: Kindly state the category for this molecule: CN1CC[C@]23c4c5ccc(O)c4O[C@H]2c2ncc(-c4ccc(Cl)cc4)cc2C[C@@]3(OC(=O)CCc2ccccc2)[C@H]1C5
Given back: band A

Asked: Classify this molecule: Oc1ccc2c3c1O[C@H]1c4ncc(-c5ccc(Cl)cc5)cc4C[C@@]4(OCc5ccccc5)[C@@H](C2)N(CC2CC2)CC[C@]314
Given back: band B

Asked: Into which category would you place Oc1ccc2c3c1O[C@H]1c4ncc(-c5ccc(Cl)cc5)cc4C=C4[C@@H](C2)N(CC2CC2)CC[C@]431 ?
Given back: band C

Asked: Band for the recorded Ki of CN1CC[C@]23c4c5ccc(O)c4O[C@H]2c2ncc(-c4ccc(Cl)cc4)cc2C[C@@]3(OCc2ccccc2)[C@H]1C5 ?
Given back: band B

Asked: Form field 'band' for O=C(CCc1ccccc1)O[C@@]12Cc3cc(-c4ccc(Cl)cc4)cnc3[C@@H]3Oc4c(O)ccc5c4[C@@]31CCN(CC1CC1)[C@@H]2C5
Given back: band C

Asked: Note: place this molecule into its band. Item: Oc1ccc2c3c1O[C@H]1c4ncc(-c5ccc(Cl)cc5)cc4C[C@@]4(OC/C=C/c5ccccc5)[C@@H](C2)N(CC2CC2)CC[C@]314
Given back: band C

Further cases:
Asked: // return the class label for CN1CC[C@]23c4c5ccc(O)c4O[C@H]2c2ncc(-c4ccc(Cl)cc4)cc2C[C@@]3(OCCCc2ccccc2)[C@H]1C5
Given back: band B

Asked: Class (by measured Ki) for O=C(Cc1ccccc1)O[C@@]12Cc3cc(-c4ccc(Cl)cc4)cnc3[C@@H]3Oc4c(O)ccc5c4[C@@]31CCN(CC1CC1)[C@@H]2C5
Given back: band B

Asked: Dear colleague, I would appreciate it if you could identify the bin for CN1CC[C@]23c4c5ccc(O)c4O[C@H]2c2ncc(-c4ccc(Cl)cc4)cc2C[C@@]3(OC(=O)Cc2ccccc2)[C@H]1C5 and reply at your convenience.
Given back: band A

Sourced from ChEMBL document CHEMBL2177065
